- Test system: NCI-H358
- Measurement protocol: relative viability (nuclei count vs DMSO), 5 days (fraction); higher = more cells survive
- Experimental context: first compound 4 µM
Readout type: relative viability
Numbers only.

Please state relative viability for every compound in the list that follows.
1. COc1cc(N2CCC(C(N)=O)CC2)ccc1Nc1nc(N)c(Cl)c(Nc2ccccc2S(=O)(=O)C(C)C)n1 [HG-5-88-01] + COc1cccc2cc(-c3nc([C@H]4CC[C@H](C(=O)O)CC4)n4ncnc(N)c34)[nH]c12 [OSI-027] (partner 0.5 µM)
2. Clc1ccc(Nc2nnc(Cc3ccncc3)c3ccccc23)cc1 [Vatalanib] + NC(=O)Nc1cc(-c2cccc(F)c2)sc1C(=O)N[C@H]1CCCNC1 [AZD7762] (partner 0.2 µM)
3. C[C@@H]1CN(CC(=O)Nc2ccc3c(c2)Cc2cccc(-c4cc(=O)cc(N5CCOCC5)o4)c2S3)C[C@H](C)O1 + C[C@]1(O)C[C@@H](c2nc(-c3ccc4ccc(-c5ccccc5)nc4c3)c3c(N)nccn32)C1 [Linsitinib] (partner 1 µM)
4. COc1cc(N2CCC(C(N)=O)CC2)ccc1Nc1nc(N)c(Cl)c(Nc2ccccc2S(=O)(=O)C(C)C)n1 [HG-5-88-01] + C[C@@H](Oc1cc(-c2cnn(C3CCNCC3)c2)cnc1N)c1c(Cl)ccc(F)c1Cl [Crizotinib] (partner 1 µM)
5. C[C@@H]1CN(CC(=O)Nc2ccc3c(c2)Cc2cccc(-c4cc(=O)cc(N5CCOCC5)o4)c2S3)C[C@H](C)O1 + Nc1nc2[nH]cc(CCc3ccc(C(=O)N[C@@H](CCC(=O)O)C(=O)O)cc3)c2c(=O)[nH]1 [Pemetrexed] (partner 0.2 µM)
6. COc1cc(N2CCC(C(N)=O)CC2)ccc1Nc1nc(N)c(Cl)c(Nc2ccccc2S(=O)(=O)C(C)C)n1 [HG-5-88-01] + O=C(CCCCCCC(=O)Nc1ccccc1)NO [Vorinostat] (partner 1 µM)
7. COc1cc(N2CCC(C(N)=O)CC2)ccc1Nc1nc(N)c(Cl)c(Nc2ccccc2S(=O)(=O)C(C)C)n1 [HG-5-88-01] + C[C@]1(O)C[C@@H](c2nc(-c3ccc4ccc(-c5ccccc5)nc4c3)c3c(N)nccn32)C1 [Linsitinib] (partner 1 µM)
8. Clc1ccc(Nc2nnc(Cc3ccncc3)c3ccccc23)cc1 [Vatalanib] + Nc1nc2[nH]cc(CCc3ccc(C(=O)N[C@@H](CCC(=O)O)C(=O)O)cc3)c2c(=O)[nH]1 [Pemetrexed] (partner 0.2 µM)

Given back:
[0.133, 0.481, 0.487, 0.235, 0.157, 0.182, 0.387, 0.157]
